assay: Cytotoxicity in rat hepatocytes; format: cell-based; details: 0.5 mM, relative to control cells
PROPERTY MEASURED: viability at 500 µM
Give me the value, and tack the unit on after it.

Can you share its viability at 500 µM? I mean this compound: CCSc1nc([N+](=O)[O-])cn1C [Compound 8, 1-methyl-2-ethylthio-4-nitroimidazole]
107%

====

test: Cytotoxicity in rat hepatocytes; type: cell-based; details: 5.0 mM, relative to control cells
PROPERTY MEASURED: viability at 5000 µM (%)
Dear colleague, please return just the value in %, with no unit written.

// viability at 5000 µM lookup, key: CCSc1nc([N+](=O)[O-])cn1C
102
